Entry source: patent US20060069084A1

system_name: JAK1 (Homo sapiens, UniProt P23458)
Construct: The kinase domain of humanJAK1 was amplified from U937mRNA; His tag (from pFastBac HTb vector; nickel chelate purification) (N); made in house; host or cells: baculovirus; virus made in Sf9, large-scale expression in High Five insect cells
Sequence (P23458 875-1153 limits assumed): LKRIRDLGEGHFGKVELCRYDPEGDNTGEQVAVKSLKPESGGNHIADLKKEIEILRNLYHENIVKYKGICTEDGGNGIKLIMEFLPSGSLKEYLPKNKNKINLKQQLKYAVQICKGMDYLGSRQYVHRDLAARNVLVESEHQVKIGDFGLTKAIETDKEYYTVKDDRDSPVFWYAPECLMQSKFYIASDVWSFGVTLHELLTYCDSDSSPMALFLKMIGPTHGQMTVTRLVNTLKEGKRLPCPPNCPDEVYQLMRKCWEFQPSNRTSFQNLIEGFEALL
assay_explanation: JAK1 kinase domain capture-based ELISA kinase assay
Type: biochemical
assay_setup: Table 6; inhibit 50% of activity at 50 μM
pIC50: −log10 of the molar value.
What pIC50 was measured for each of the following?

Please fill in: pIC50 reported for COc1ccccc1-c1cn2ccnc2c(Nc2ccc(N3CCOCC3)cc2)n1 = > 4.30

Please fill in: pIC50 reported for FC(F)(F)Oc1cccc(-c2cn3ccnc3c(Nc3ccccc3)n2)c1 = < 4.30

Please fill in: pIC50 reported for COc1ccc(Nc2nc(-c3ccccc3Cl)cn3ccnc23)cn1 = < 4.30

Please fill in: pIC50 reported for OCc1ccccc1-c1cn2ccnc2c(Nc2ccc(N3CCOCC3)cc2)n1 [drawing 142] = > 4.30

Please fill in: pIC50 reported for CN1CCN(c2nc(-c3cccnc3)cn3ccnc23)CC1 = > 4.30

Please fill in: pIC50 reported for Brc1cn2ccnc2c(Nc2ccc(N3CCOCC3)cc2)n1 [drawing 100] = > 4.30
